Source of measurements: patent US11912693B2

Overview of reported hS1P1 B-arrestin2 pEC50 across a group of compounds:
Target: human sphingosine-1-phosphate receptor 1 (S1P1) (Homo sapiens (Human))
Test: β-Arrestin2 recruitment assay (PathHunter), S1P1 CHO-K1 cells
Format: cell-based
Details: β-arrestin2 recruitment, S1P1 CHO-K1 cells
Method: Stable clonal Chinese hamster ovary K1 (CHO-K1) cells co-expressing EA-β-arrestin2 and the human sphingosine-1-phosphate receptor 1 (NM_001400, S1P1) with a C-terminal Prolink™ tag were purchased from DiscoverX corporation (Cat #: 93-0207C2). […] Agonist-promoted β-arrestin2 recruitment to the sphingosine-1-phosphate 1 receptor was determined using the β-arrestin PathHunter®) Detection kit (DiscoverX Corporation, Cat #: 93-0001). […]
Sequence (P21453 whole entry, looked up): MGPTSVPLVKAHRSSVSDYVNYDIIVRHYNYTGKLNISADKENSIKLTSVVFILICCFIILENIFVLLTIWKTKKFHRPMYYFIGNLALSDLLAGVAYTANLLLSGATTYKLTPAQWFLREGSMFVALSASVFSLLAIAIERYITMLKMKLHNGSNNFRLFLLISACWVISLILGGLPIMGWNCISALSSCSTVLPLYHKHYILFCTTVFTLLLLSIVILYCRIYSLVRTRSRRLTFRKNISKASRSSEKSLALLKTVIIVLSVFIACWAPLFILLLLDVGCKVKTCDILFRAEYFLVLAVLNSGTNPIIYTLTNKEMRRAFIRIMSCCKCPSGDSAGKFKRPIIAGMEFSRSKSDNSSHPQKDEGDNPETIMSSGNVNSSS
Sequence (P32121 whole entry partner, looked up): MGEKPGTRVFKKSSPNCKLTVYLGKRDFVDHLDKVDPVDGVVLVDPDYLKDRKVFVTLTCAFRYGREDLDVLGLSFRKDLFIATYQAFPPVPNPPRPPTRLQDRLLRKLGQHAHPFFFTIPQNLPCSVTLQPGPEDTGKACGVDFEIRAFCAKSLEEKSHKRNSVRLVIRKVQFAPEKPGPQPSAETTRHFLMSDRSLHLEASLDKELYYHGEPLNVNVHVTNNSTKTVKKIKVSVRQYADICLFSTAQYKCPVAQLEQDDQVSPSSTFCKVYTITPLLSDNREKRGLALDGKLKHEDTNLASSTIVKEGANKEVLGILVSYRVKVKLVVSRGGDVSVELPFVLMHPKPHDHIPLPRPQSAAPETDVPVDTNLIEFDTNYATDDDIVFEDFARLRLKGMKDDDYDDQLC

Compound	Experimental Value
Cc1ccccc1-c1noc(-c2ccc3c(c2)nnn3CC(F)F)n1	>5
C=CCNc1ccc(-c2nc(-c3ccc4[nH]nnc4c3)no2)cc1C#N	>5
CC(C)n1nnc2cc(-c3c[nH]c(-c4ccccc4)c3)ccc21	<5
CCC1(CC)CC(=O)c2cc(-c3nc(-c4ccsc4)no3)ccc2N1	>5
CCCC1CC(=O)c2ccc(-c3nc(-c4cccnc4)no3)cc2O1 (stereo not drawn)	<5

## Input Looking for the measured hS1P1 B-arrestin2 pEC50 of Cc1ccccc1-c1noc(-c2ccc3nnn(C(C)C)c3c2)n1 , can you help?
## Output <5

## Input Looking for the measured hS1P1 B-arrestin2 pEC50 of CSc1ccc(-c2nc(-c3ccc4c(c3)nnn4C3CCCC3)no2)cc1 , can you help?
## Output <5

## Input Looking for the measured hS1P1 B-arrestin2 pEC50 of N#Cc1cc(-c2nc(-c3ccc4c(c3)CCC(=O)N4)no2)ccc1N , can you help?
## Output <5

## Input Looking for the measured hS1P1 B-arrestin2 pEC50 of COc1cccc(F)c1-c1noc(-c2ccc3c(ccn3C(C)C)c2)n1 , can you help?
## Output >5

## Input Looking for the measured hS1P1 B-arrestin2 pEC50 of CCC1(CC)CC(=O)c2cc(-c3nc(-c4cccc(OC)n4)no3)ccc2O1 , can you help?
## Output >5

## Input Looking for the measured hS1P1 B-arrestin2 pEC50 of COCCn1cc(-c2ccccc2C)cc1-c1ccc2c(c1)nnn2C(C)C , can you help?
## Output <5

## Input Looking for the measured hS1P1 B-arrestin2 pEC50 of COc1cc(NC(C)=O)ccc1-c1nc(-c2ccncc2)no1 , can you help?
## Output <5

## Input Looking for the measured hS1P1 B-arrestin2 pEC50 of COc1ccccc1-c1nnc(-c2ccc3c(c2)oc(=O)n3C)o1 [Compound 350] , can you help?
## Output <5

## Input Looking for the measured hS1P1 B-arrestin2 pEC50 of COc1cccc(-c2nc(-c3ccc4c(ccn4C(C)C)c3)ns2)c1 , can you help?
## Output <5

## Input Looking for the measured hS1P1 B-arrestin2 pEC50 of COc1cnc(-c2nc(-c3ccc4c(c3)nnn4C(C)C)no2)cn1 , can you help?
## Output <5

----------
Target: human sphingosine-1-phosphate receptor 1 (S1P1) (Homo sapiens (Human))
Experiment: Inhibition of cAMP production (HTRF cAMP HiRange), S1P1 CHO-K1 cells
Type: cell-based
Settings: CHO-K1; efficacy (SPAN) normalized to fingolimod; read-out: hS1P1 cAMP SPAN
Sequence (P21453 whole entry, looked up): as the sequence (P21453 whole entry, looked up) above
Value Kind: Emax

Given Smiles	Experimental Value
COc1cc(C)c2nc(-c3ccc4c(c3)nnn4C(C)C)oc2c1	> 75%
Cc1ccc2oc(-c3ccc4c(c3)nnn4C(C)C)nc2c1	> 75%
N#Cc1cc(-c2nnc(-c3ccc4[nH]ncc4c3)o2)ccc1NCC1CC1	> 75%

## Input Looking for the measured Emax of COc1cccc(OC)c1-c1noc(-c2ccc3c(cnn3C(C)C)c2)n1 , can you help?
## Output < 75%

## Input Looking for the measured Emax of CC(C)n1ccc2cc(-c3nc(-c4ccccc4Cl)no3)ccc21 , can you help?
## Output > 75%

## Input Looking for the measured Emax of CC(C)Nc1ccc(-c2nnc(-c3ccc4[nH]cnc4c3)o2)cc1C#N , can you help?
## Output > 75%

## Input Looking for the measured Emax of CC1(C)CCC2(CC1)CC(=O)c1cc(-c3nc(-c4cccnc4)no3)ccc1O2 , can you help?
## Output < 75%

## Input Looking for the measured Emax of Cc1occc1-c1noc(-c2ccc3c(c2)nnn3CC(C)(C)O)n1 , can you help?
## Output > 75%

## Input Looking for the measured Emax of CC(C)(O)Cn1nnc2cc(-c3nc(-c4ccc5nc[nH]c5c4)no3)ccc21 , can you help?
## Output < 75%
